Assay: Dissolution of isolated product in water
Assay type: physicochemical
Details: observation
assay.readout: dissolution in water

molecule	assay.readout	readout.value
CCCCCCCCCCCCCCCCCC[N+](C)(C)CCC[Si](OCC(CO)(CO)NCC(O)CS(=O)(=O)[O-])(OCC(CO)(CO)NCC(O)CS(=O)(=O)O)OCC(CO)(CO)NCC(O)CS(=O)(=O)O (stereo not drawn) [Example 2]	dissolution in water	dissolves in water
CCCCCCCCCCCCCCCCCC[N+](C)(C)CCC[Si](OCC(CO)(CO)NCCS(=O)(=O)[O-])(OCC(CO)(CO)NCCS(=O)(=O)O)OCC(CO)(CO)NCCS(=O)(=O)O [Example 1]	dissolution in water	dissolves in water
